Cited source for all entries: patent EP4410284A1

system: PEX405 cells; format: cell-based; details: 1.3 µM, 3 days, PI positive cells (dead cells)
observable: % PI+ cells (%)
State the answer as a number, implicitly in %.

Below, 3 compounds whose answers are already recorded.
{"compound": "O=C(CCCCCCC(=O)Nc1cccnc1)NO [Pyroxamide]", "% PI+ cells [%]": 1}
{"compound": "Nc1ccccc1NC(=O)CCCCCCC(=O)Nc1ccccc1", "% PI+ cells [%]": 1}
{"compound": "CCN1CCN(C(c2cccnc2)c2cc(Cl)c3cccnc3c2O)CC1 (stereo not drawn)", "% PI+ cells [%]": 0}

# % PI+ cells lookup, item O=C(CCCCCCC(=O)NO)NO [Suberoyl bis-hydroxamic acid]
1

Field entry: "Oc1cc(O)cc(/C=C/c2c(O)cccc2O)c1"
1

Field entry: "O=C(CCCCCCNC(=O)c1cnc(N(c2ccccc2)c2ccccc2)nc1)NO"
1

Field entry: "O=C(NO)c1ccc(Cn2c(=O)n(CCc3ccccc3)c(=O)c3ccccc32)cc1"
0

Field entry: "O=C(NO)c1cnc(NC2(c3ccccc3)CC2)nc1"
1

Field entry: "C#Cc1cccc(Nc2ncnc3cc(OC)c(OCCCCCCC(=O)NO)cc23)c1"
1

* * *

test system: PEX405 cells; assay type: cell-based; conditions: 1.3 µM, 3 days, PI positive cells (dead cells)
Counter-ions that a name gives are not always drawn.
observable: % PI+ cells (%)
State the answer as a number, implicitly in %.

Below, 8 molecules whose answers are already recorded.
{"molecule": "COc1cccc2c1c(O)c(C(=O)N(C)c1ccc(C(F)(F)F)cc1)c(=O)n2C [Tasquinimod]", "quantity-unit": "%", "% PI+ cells": 0}
{"molecule": "Nc1ccccc1NC(=O)CCCCCC(=O)Nc1ccccc1 [NKL 22]", "quantity-unit": "%", "% PI+ cells": 0}
{"molecule": "CCN(CC)Cc1ccc2cc(COC(=O)Nc3ccc(C(=O)NO)cc3)ccc2c1 [Givinostat (hydrochloride monohydrate), Givinostat]", "quantity-unit": "%", "% PI+ cells": 3}
{"molecule": "O=C(CCCCCCNC(=O)c1cnc(N(c2ccccc2)c2ccccc2Cl)nc1)NO [Citarinostat]", "quantity-unit": "%", "% PI+ cells": 0}
{"molecule": "Nc1ccccc1NC(=O)c1ccc(CCCC(=O)Nc2ccc([C@@H]3C[C@H]3N)cc2)cc1 [Corin]", "quantity-unit": "%", "% PI+ cells": 2}
{"molecule": "CCCCNNC(=O)c1ccc(-c2cccc(F)c2F)cc1 [SR-4370]", "quantity-unit": "%", "% PI+ cells": 0}
{"molecule": "CCCCOc1ccc(CC(=O)NO)cc1 [Bufexamac]", "quantity-unit": "%", "% PI+ cells": 1}
{"molecule": "O=C(NO)c1cccc(C(=O)NCCc2ccccc2)c1 [BRD73954]", "quantity-unit": "%", "% PI+ cells": 0}

Now let's try a different one.
# % PI+ cells lookup, item Nc1cc(F)ccc1NC(=O)/C=C/c1cnn(C/C=C/c2ccccc2)c1 [RGFP966]
1

* * *

test system: GM16513 cells; assay: Catalase import immunofluorescence, high-content screening (% importing cells); format: cell-based, human; settings: GM16513 cells, 1.3 µM, 3 days
Below, each entry is listed with its recorded % Importing cells.
State the answer as a number, implicitly in %.

Below, 3 molecules whose answers are already recorded.
{"molecule": "Nc1ccc(-c2cccs2)cc1NC(=O)c1ccc2nc(N3CCNCC3)ccc2c1", "observable": "% Importing cells", "reported": 74}
{"molecule": "O=C(CCCCCCC(=O)NO)NO [Suberoyl bis-hydroxamic acid]", "observable": "% Importing cells", "reported": 13}
{"molecule": "O=C(/C=C/c1ccc(O)c(O)c1)c1ccc(O[C@@H]2O[C@H](CO)[C@@H](O)[C@H](O)[C@H]2O)c(O)c1O", "observable": "% Importing cells", "reported": 20}

# % Importing cells lookup, item "CC(C)(C)c1ccc(C(=O)Nc2ccc(C(=O)NO)cc2)cc1"
22

Field entry: "CC(C)(C)OC(=O)Nc1ccc(-c2cc(C(=O)NCCCCCCC(=O)NO)no2)cc1"
73

* * *

Below, each entry is listed with its recorded % Importing cells.
system: GM16513 cells; experiment: Catalase import immunofluorescence, high-content screening (% importing cells); assay type: cell-based, human; conditions: GM16513 cells, 1.3 µM, 3 days
Structures can show the parent of a compound that is named as a salt.
State the answer as a number, implicitly in %.

Below, 10 compounds whose answers are already recorded.
{"compound": "O=C(CCc1ccc(CN[C@H](C(=O)OC2CCCC2)C2CCCCC2)cn1)NO", "reported": 50}
{"compound": "Nc1ccccc1NC(=O)c1ccc(CNc2nccc(-c3cccnc3)n2)cc1", "reported": 60}
{"compound": "COc1ccc(-c2nc(N3CCOCC3)c3sc(CN(C)c4ncc(C(=O)NO)cn4)cc3n2)cn1 [Fimepinostat]", "reported": 81}
{"compound": "CCCCOc1ccc(CC(=O)NO)cc1", "reported": 26}
{"compound": "O=C(NO)c1cnc(N2C[C@@H]3[C@H](C2)[C@H]3NCc2ccc3cc(F)ccc3n2)nc1", "reported": 88}
{"compound": "CC(/C=C/C(=O)NO)=C\\[C@@H](C)C(=O)c1ccc(N(C)C)cc1", "reported": 90}
{"compound": "CC1(C)c2cccc(C(=O)NO)c2CN1c1cnc(C(F)(F)F)cn1", "reported": 14}
{"compound": "O=C(NO)c1cccc2ccccc12 [1-Naphthohydroxamic acid]", "reported": 12}
{"compound": "Oc1cc(O)cc(/C=C/c2c(O)cccc2O)c1", "reported": 12}
{"compound": "CCCCN(Cc1ccc(C(=O)NO)cc1)C(=O)Nc1ccccc1", "reported": 35}

Notebook entry, GM16513 cells assay: % Importing cells of CN(C)Cc1ccc(S(=O)(=O)n2ccc(/C=C/C(=O)NO)c2)cc1 [Resminostat (hydrochloride), Resminostat] = ?
60

Field entry: "Nc1ccccc1NC(=O)CCCCCC(=O)Nc1ccccc1"
28

Field entry: "Cc1[nH]c2ccccc2c1CCNCc1ccc(/C=C/C(=O)NO)cc1"
86

Field entry: "COc1ccc(/C=C/C(=O)NO)c(-c2ccc(-c3ccccc3)cc2)c1"
10

Field entry: "CN1CCc2c(c3ccccc3n2Cc2ccc(C(=O)NO)cc2)C1"
26

Field entry: "O=C(NO)c1cnc(NC2(c3ccccc3)CC2)nc1"
31

Field entry: "O=C(CCCCCCC(=O)Nc1ccc(CN[C@H](C(=O)OC2CCCC2)c2ccccc2)cc1)NO"
33

Field entry: "O=C(CCCCCCNC(=O)c1cnc(N(c2ccccc2)c2ccccc2Cl)nc1)NO"
47

* * *

tested on: GM16513 cells; assay type: cell-based; details: 1.3 µM, 3 days, PI positive cells (dead cells)
Below, each entry is listed with its recorded % PI+ cells.
State the answer as a number, implicitly in %.

Notebook entry, GM16513 cells assay: % PI+ cells of "O=C(NO)c1ccc(CNc2cccc3cccnc23)cc1" = ?
1

Field entry: "COC(=O)c1ccc(OC(=O)CCCCCCC(=O)NO)cc1"
1

Field entry: "CCCCNNC(=O)c1ccc(-c2cccc(F)c2F)cc1"
1

Field entry: "O=C(/C=C/c1ccc(CN(CCO)CCc2c[nH]c3ccccc23)cc1)NO"
31

Field entry: Cc1ccc(NC(=O)CCCCCC(=O)Nc2ccccc2N)cc1 [Pimelic Diphenylamide 106]
1

Field entry: "CC(C)(C)OC(=O)Nc1ccc(-c2cc(C(=O)NCCCCCCC(=O)NO)no2)cc1"
2

Field entry: "Cn1cc(-c2ccc(S(=O)(=O)n3ccc(/C=C/C(=O)Nc4ccccc4N)c3)cc2)cn1"
6

Field entry: "O=C(CCCCCN1C(=O)c2cccc3cccc(c23)C1=O)NO"
2

Field entry: "C#Cc1cccc(Nc2ncnc3cc(OC)c(OCCCCCCC(=O)NO)cc23)c1"
2

Field entry: "O=C(NO)c1ccc(Cn2c(=O)n(CCc3ccccc3)c(=O)c3ccccc32)cc1"
1

* * *

system: PEX405 cells; assay: Catalase import immunofluorescence, high-content screening (% importing cells); type: cell-based, human; details: PEX405 cells, 1.3 µM, 3 days
Counter-ions that a name gives are not always drawn.
Threshold check on % Importing cells: strictly below 5% is Met; on or above 5% is Not met.

{"compound": "CCN(CC)Cc1ccc2cc(COC(=O)Nc3ccc(C(=O)NO)cc3)ccc2c1 [Givinostat (hydrochloride monohydrate), Givinostat]", "label-class": "Not met"}

Dear reviewer, please state whether "C#Cc1cccc(Nc2ncnc3cc(OC)c(OCCCCCCC(=O)NO)cc23)c1" has % Importing cells strictly beneath 5%.
Not met

Field entry: Cc1ccc(NC(=O)CCCCCC(=O)Nc2ccccc2N)cc1 [Pimelic Diphenylamide 106]
Met

Field entry: "CCCCNNC(=O)c1ccc(Br)cc1"
Met

* * *

tested on: PEX405 cells; experiment: Catalase import immunofluorescence, high-content screening (% importing cells); assay type: cell-based, human; conditions: PEX405 cells, 1.3 µM, 3 days
Where a name gives a salt, the structure may show the parent alone.
Decide by % Importing cells: equal to or exceeding 5% means y, less means n.

{"compound": "Nc1ccccc1NC(=O)c1cnccn1", "label-class": "n"}
{"compound": "COc1ccc(/C=C/C(=O)NO)c(-c2ccc(-c3ccccc3)cc2)c1", "label-class": "n"}
{"compound": "CC1(C)c2cccc(C(=O)NO)c2CN1c1cnc(C(F)(F)F)cn1", "label-class": "n"}
{"compound": "Nc1cc(F)ccc1NC(=O)/C=C/c1cnn(C/C=C/c2ccccc2)c1", "label-class": "n"}

Textbook exercise: given the entry "COc1ccc(Cn2ccc3ccc(C(=O)NO)cc32)cc1" , state whether its % Importing cells is greater than or equal to 5%.
n

Field entry: "O=C(NCC1(c2nc(-c3ccccc3)cs2)CCOCC1)c1cccc(-c2noc(C(F)(F)F)n2)c1"
n

Field entry: "O=C(NO)c1ccc(CN(c2cnccn2)c2cnccn2)cc1"
n

Field entry: "Nc1ccccc1NC(=O)c1ccc(Cn2cc(-c3ccc(C(=O)NCc4cccnc4)cc3)nn2)cc1"
y

Field entry: "Cc1cc(Cl)ccc1OCCCC(=O)NO"
n

Field entry: "Nc1ccccc1NC(=O)CCCCCCC(=O)Nc1ccccc1"
y

Field entry: "Nc1ccccc1NC(=O)CCCCCC(=O)Nc1ccccc1"
y

Field entry: Nc1[nH]c(=O)nc2c1ncn2[C@@H]1O[C@H](CO)[C@@H](O)[C@H]1O [Crotonoside]
n

Field entry: "O=C(/C=C/c1ccc(CN(CCO)CCc2c[nH]c3ccccc23)cc1)NO"
y

Field entry: "O=C(/C=C/c1cccc(S(=O)(=O)Nc2ccccc2)c1)NO"
y

Field entry: "CCCCOc1ccc(CC(=O)NO)cc1"
n

Field entry: "CC(/C=C/C(=O)NO)=C\[C@@H](C)C(=O)c1ccc(N(C)C)cc1"
y

Field entry: CN(C)Cc1ccc(S(=O)(=O)n2ccc(/C=C/C(=O)NO)c2)cc1 [Resminostat (hydrochloride), Resminostat]
y

Field entry: "O=C(NO)c1cccc(C(=O)NCCc2ccccc2)c1"
n
